experiment: NCI Yeast Anticancer Drug Screen. Data for the wt1 strain (AID 149);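 also: 0% = growth of vehicle-treated wt1 cultures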; conditions: S. cerevisiae wt1 strain (SPY 50644) growth inhibition; at 33.0 µM; active compounds read high
Compounds without any hit were thinned out: in the full panel of roughly 79,000, 15% have a hit.
Measured growth inhibition of individual entries

- Compound: "CN(CCOc1ccc(Cl)cc1)CCOc1ccc(Cl)cc1"
  growth inhibition [%]: 39
- Compound: "CC1CCN(CCC(=O)c2ccc([N+](=O)[O-])cc2)CC1"
  growth inhibition [%]: 0
- Compound: "O=C(/C=C/c1ccsc1)c1cccs1"
  growth inhibition [%]: -35
- Compound: "COc1cc([N+](=O)[O-])c2ncccc2c1Br"
  growth inhibition [%]: -2
- Compound: "CC(=O)/C(=C\\c1ccc(Cl)c(Cl)c1)C(=O)C(C)CN(C)C (configuration not stated)"
  growth inhibition [%]: 10
- Compound: "O=C1C=C(NCCc2cc(Br)c(O)c(Br)c2)C(=O)c2ncccc21"
  growth inhibition [%]: 53
- Compound: "Fc1ccc(Nc2ccc3ccccc3c2)cc1"
  growth inhibition [%]: 21
- Compound: "CC1=CN2C(c3ccccc3)=NON(c3ccc(C)cn3)C2C=C1 (configuration not stated)"
  growth inhibition [%]: -3
- Compound: "O=c1c2ccccc2nc(-c2ccc(Cl)cc2)n1O"
  growth inhibition [%]: 96
- Compound: "Cc1ccc(Nc2n[nH]c(=S)s2)c(C)c1"
  growth inhibition [%]: 18
- Compound: "NC(N)=NC(N)=Nc1ccccc1 (tested in a mixture with another compound)"
  growth inhibition [%]: 11
- Compound: "CCCCCCCCNCCCCCCCC"
  growth inhibition [%]: 96
